These entries and their values trace back to paper PMC6916368.

Molecular target: β5c subunit of isolated human 20S proteasome (Homo sapiens, UniProt P28074)
Construct: purchased Enzo Life Sciences
Assay: Proteasome inhibition assay (20 S Proteasome Assay Kit, Suc‐LLVY‐AMC)
Type: biochemical
Conditions: c=100 nM; read-out: Rel. Inhibition β5c
Protocol: Proteasome inhibition assay. […] The 20 S Proteasome Assay Kit for Drug Discovery was used according to the supplier's protocol using Suc‐LLVY‐AMC (β5), Bz‐VGR‐AMC (β2) or Z‐LLE‐AMC (β1) as substrates (Enzo Life Sciences). […] After 30 min incubation, substrate was added (cfinal=100 μM), incubated for 60 minutes and fluorescence was read using a Tecan M1000 microplate reader. […] IC50 values were determined from technical duplicates as mean value of three independent experiments.
value_type: inhibition at 0.1 µM (%)

| sample_smiles | display_unit | readout_number |
| --- | --- | --- |
| CC(C)C[C@H](NC(=O)[C@H](CCc1ccccc1)NC(=O)CN1CCOCC1)C(=O)N[C@@H](Cc1ccccc1)C(=O)N[C@@H](CC(C)C)C(=O)[C@@]1(C)CO1 | % | 86 |
| CC(C)C[C@H](NC(=O)OCc1ccccc1)C(=O)N[C@@H](CC(=O)OC(C)(C)C)C(=O)N[C@@H](CC(C)C)C(=O)C(=O)Nc1ccccc1 | % | 57 |
| Cc1c(NC(=O)C(=O)[C@H](CC(C)C)NC(=O)[C@H](CC(C)C)NC(=O)[C@H](CC(C)C)NC(=O)OCc2ccccc2)cccc1Oc1ccccc1 | % | 41 |
| Cc1cc(C)c(Oc2ccccc2)cc1NC(=O)C(=O)[C@H](CC(C)C)NC(=O)[C@H](CC(=O)OC(C)(C)C)NC(=O)[C@H](CC(C)C)NC(=O)OCc1ccccc1 | % | 33 |
| CC(C)C[C@H](NC(=O)OCc1ccccc1)C(=O)N[C@@H](CC(=O)OC(C)(C)C)C(=O)N[C@@H](CC(C)C)C(=O)C(=O)Nc1ccc(Oc2ccccc2)cc1 | % | 41 |
